TARGET_DESC: MAPK14 (human)
ASSAY_OVERVIEW: Inhibition of LPS Stimulated TNF Production by U937 Cells
TEST_SETTINGS: concentration not given here
Reported inhibition values are given for each entry in this list.

# MOL, inhibition (%)
data = [
    ("O=C(Cc1cccc2ccccc12)NCc1[nH]nc(-c2ccc(F)cc2)c1-c1ccncc1", 21),
    ("Cc1ccc(S(=O)(=O)N[C@@H](Cc2ccccc2)C(=O)NCCc2[nH]nc(-c3ccc(F)cc3)c2-c2ccncc2)cc1", 17),
    ("O=C(NCCc1[nH]nc(-c2ccc(F)cc2)c1-c1ccncc1)c1cccnc1", 23),
    ("CCCCOc1ccc(S(=O)(=O)NCc2[nH]nc(-c3ccc(F)cc3)c2-c2ccncc2)cc1", 31),
    ("C[C@@H](NS(=O)(=O)Cc1ccccc1[N+](=O)[O-])c1[nH]nc(-c2ccc(F)cc2)c1-c1ccncc1", 91),
    ("C[C@@H](NS(=O)(=O)c1ccc(F)cc1F)c1[nH]nc(-c2ccc(F)cc2)c1-c1ccncc1", 55),
    ("O=C(NCc1[nH]nc(-c2ccc(F)cc2)c1-c1ccncc1)c1cccnc1", 16),
    ("O=C(N[C@H](Cc1ccccc1)c1[nH]nc(-c2ccc(F)cc2)c1-c1ccncc1)c1ccccn1", 8),
    ("CC(=O)OC(C)(C)C(=O)N[C@H](C)c1[nH]nc(-c2ccc(F)cc2)c1-c1ccncc1", 17),
]
